Catalogue of standardized gMFI values
# ASSAYED_SYSTEM: T1, HLA-A2 / homologous peptide IL20RB complex on T2 cells (human)
# T1 construct: whole, on cells; also called T2 cells supplemented with homologous peptide IL20RB
# ASSAY_PROCEDURE: flow cytometry on peptide-pulsed T2 cells, scFv 100 nM;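 further: scFv binding read as gMFI and normalized to the level of HLA/peptide complex displayed on T2 cells, with homologous 9-mer peptides used to probe specificity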
PROPERTY: standardized gMFI

BINDER: NYC-0003 (scFv, not shown: small tags and cut ends, also called 3M4E5 scFv; NYC-0003 tag adduct) scFv: EVQLLESGGGLVQPGGSLRLSCAASGFTFSTYQMSWVRQAPGKGLEWVSGIVSSGGSTAYADSVKGRFTISRDNSKNTLYLQMNSLRAEDTAVYYCAGELLPYYGMDVWGQGTTVTVSSGGGGSGGGGSGGGGSQSELTQPRSVSGSPGQSVTISCTGTSRDVGGYNYVSWYQQHPGKAPKLIIHDVIERSSGVPDRFSGSKSGNTASLTISGLQAEDEADYYCWSFAGSYYVFGTGTDVTVL
REPORTED_VALUE: 0.43
//
BINDER: NYA-2048 (scFv, also called NYA-2048 tag adduct) scFv: GQVQLVESGGGVVQPGRSLRLSCAASGFSIRSYDMHWVRQAPGKGLEWVATISYDGSQKYYADSVKGRFTISRDNSKNTLYLQMSSLRAEDTAVYHCARGSSGHYEAFDIWGQGTLVTVSSGGGGSGGGGSGGGGSQSVLTQPPSASGTPGQRVTISCSGSSSNIGNWYVSWYQQLPGTAPKLLIYDNNKRPSGVPDRFSGSKSGTSASLAISGLQSEDEADYYCGTWDSSLSAPWVFGGGTKLTVLGAAAGAGGDYKDDDDKGAAAHHHHHH
REPORTED_VALUE: 0.48
//
BINDER: NYA-0001 (scFv, also called NYA-0001 tag adduct; NY-R119 expressed in a cultured mammalian cell) scFv: GEVQLVESGGGVVQPGRSLTPSCSASGFSIRSYDIHWVRQAPGKGLEWVATISYDGSQKYFADSVKGRFTIFRDESENMVYLQMSGLRVEDTAVYHCARGSSGHYEAFDIWGQGTMVTVSSGGGGSGGGGSGGGGSQSVLTQPPSVSAAPGQKVTISCSGSSSNIGNNYVSWYQQLPGTAPKLLIYDNNKRPSGIPDRFSGSKSGTSATLGITGLQTGDEADYYCGTWDSSLSAPWVFGGGTKVTVLGAAAGAGGDYKDDDDKGAAAHHHHHH
REPORTED_VALUE: 0.42
//
BINDER: NYA-2061 (scFv, also called NYA-2061 tag adduct) scFv: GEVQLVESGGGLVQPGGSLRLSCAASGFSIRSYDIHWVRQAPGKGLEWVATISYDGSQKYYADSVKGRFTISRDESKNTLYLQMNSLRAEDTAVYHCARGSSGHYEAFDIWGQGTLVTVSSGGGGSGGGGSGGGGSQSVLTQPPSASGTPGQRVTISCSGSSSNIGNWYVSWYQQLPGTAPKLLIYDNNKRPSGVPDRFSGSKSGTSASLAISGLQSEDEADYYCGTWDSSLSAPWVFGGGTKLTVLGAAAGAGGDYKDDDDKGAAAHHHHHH
REPORTED_VALUE: 0.46
//
BINDER: NYA-1154 (scFv) scFv: GEVQLVESGGGVVQPGRSLTPSCSASGFSIRSYDMHWVRQAPGKGLEWVATISYDGSQKYFADSVKGRFTIFRDESENMVYLQMSGLRVEDTAVYHCARGSSNHYEAFDIWGQGTMVTVSSGGGGSGGGGSGGGGSQSVLTQPPSVSAAPGQKVTISCSGSSSNIGNNYVSWYQRLPGTAPKLLIYDNNKRPSGIPDRFSGSKSGTSATLGITGLQTGDEADYYCGAWDSSLSAPWVFGGGTKVTVLGAAAGAGGDYKDDDDKGAAAHHHHHH
REPORTED_VALUE: 0.51

src = patent US20230348616A1
